List of self-cleavage values.
B1: Twister Ribozyme (parent)
chain: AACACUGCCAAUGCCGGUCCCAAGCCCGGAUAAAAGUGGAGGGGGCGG

Variants of: B1
Test: self-cleavage, relative activity (ratio to wild type); higher = more cleavage; co-transcriptional
Please state the value as a number alone, without comment.

biosequence="AACACUGCCACUGCCGGUUCCAAGCCCGGAUAAAAGUGGAGGGGGCGG [A11C C19U]" value_kind=self-cleavage number=0.627
biosequence="AAUACUGCCAAUGCCGGUCCCAAGCCCGGAUAAAGGUGGAGGGGGCGG [C3U A35G]" value_kind=self-cleavage number=0.136
biosequence="AACGCUGCCAAUGCCGCUCCCAAGCCCGGAUAAAAGUGGAGGGGGCGG [A4G G17C]" value_kind=self-cleavage number=0.0548
biosequence="AACACUGCCAAUGGCGAUCCCAAGCCCGGAUAAAAGUGGAGGGGGCGG [C14G G17A]" value_kind=self-cleavage number=0.122
biosequence="AACACUGCCAAUGCCGGUCCCAAGCCCGGAUAAAAGUAGAGGGGGCGC [G38A G48C]" value_kind=self-cleavage number=1.04
biosequence="AACACUGCCAAUGCCGGUCCCAAGCCCUGAUAAAAGUGGUGGGGGCGG [G28U A40U]" value_kind=self-cleavage number=0.156

self-cleavage reported for this variant AACACUGCCAAUGCCGGUCCCAAGCCCGGAUAAGAAUGGAGGGGGCGG [A34G G36A] : 0.164

Per the records, this variant ( AACACUGCCAAUGCCGGUCCCAAGCCUGGAUAAAAGUGGAGGGGACGG [C27U G45A] ) has self-cleavage equal to 0.819

For record AACACUGCCAAUGCUGGUCCCAAGCCCGGAUAAAAGUGGAGUGGGCGG [C15U G42U] the listed self-cleavage is 0.235

Notebook: AACGCUGCCAAUGCCGGUCCCAAGCCCGGAUAAAAGUGGAGGGGGCGA [A4G G48A] , self-cleavage read as 0.955

All values here come from the RNAGym collection of RNA variant scans (doi:10.7554/elife.80360).
